- systemUnderTest: HIV Env of isolate Ce704809221_1B3 (clade C) (HIV)
- experimentalProtocol: cell-based or functional assay
quantity: IC50 (µg/ml) with constrains (µg/mL)
Response body: numeric value in µg/mL, unit text excluded.

Noted for ePGDM9 (antibody, V domains shown) VH: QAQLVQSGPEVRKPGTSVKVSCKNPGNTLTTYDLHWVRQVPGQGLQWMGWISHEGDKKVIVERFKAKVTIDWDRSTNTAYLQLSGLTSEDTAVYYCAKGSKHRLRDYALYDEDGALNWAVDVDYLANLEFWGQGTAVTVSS VL: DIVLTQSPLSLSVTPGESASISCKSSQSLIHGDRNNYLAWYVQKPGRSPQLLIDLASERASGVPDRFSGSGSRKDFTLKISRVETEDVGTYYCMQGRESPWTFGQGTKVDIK : its IC50 (µg/ml) with constrains reads 0.135
